- test.target: T1, Human DLL3 full-length protein on cells (human, UniProt Q9NYJ7 27-618)
- T1 construct: H1184 and DMS53 express DLL3 themselves; The cell line is named under assay; also called H1184 cells; DLL3/H82
- T1 sequence: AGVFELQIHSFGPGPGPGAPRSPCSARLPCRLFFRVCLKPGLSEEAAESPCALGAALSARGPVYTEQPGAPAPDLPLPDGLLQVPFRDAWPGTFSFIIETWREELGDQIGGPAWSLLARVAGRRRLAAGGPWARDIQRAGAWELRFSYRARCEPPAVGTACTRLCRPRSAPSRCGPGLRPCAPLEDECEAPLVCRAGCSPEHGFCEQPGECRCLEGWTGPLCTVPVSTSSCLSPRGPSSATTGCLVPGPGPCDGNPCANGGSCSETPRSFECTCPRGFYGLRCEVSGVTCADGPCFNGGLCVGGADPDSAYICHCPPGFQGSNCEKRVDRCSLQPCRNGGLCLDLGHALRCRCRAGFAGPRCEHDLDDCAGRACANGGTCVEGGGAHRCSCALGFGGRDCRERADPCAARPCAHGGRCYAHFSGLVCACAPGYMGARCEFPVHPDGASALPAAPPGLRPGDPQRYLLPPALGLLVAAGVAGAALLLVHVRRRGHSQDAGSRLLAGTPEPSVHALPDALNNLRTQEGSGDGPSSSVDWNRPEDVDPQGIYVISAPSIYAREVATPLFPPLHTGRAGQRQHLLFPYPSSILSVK
- experiment: FACS on H1184 cells
Recorded measurements of Emax, one per entry

Need Emax, item M6CHI (antibody, human IgG1, kappa, V domains shown, murine variable regions on human IgG1 / kappa constant regions; also called chimeric antibody of mAb6) VH: EVQLQQSGPVLVKPGASVKMSCKASGYTFTDYYMNWVKQSHGKSLEWIGIINPYSGVTIYNHKFKGKATLTVDKSSNTAYMELNSLTSEDSAVYYCARQDSLLDYAMDYWGQGTSVTVSS VL: DILMTQSPSSMSVSLGDTVSITCHASQGISGNMGWLQQKPGKSFKGLIYHGANLEDGVPSRFSGSGSGADYSLTISSLESEDFADYYCVQYAQFPYTFGGGTKLEIKR
3370

Continuing:
# lookup: Emax of Hu6 (antibody, human IgG1, kappa, V domains shown, also called hAb6L4H12) VH: EVQLVQSGSELKKPGASVKVSCKASGYTFTDYYMNWVRQAPGQGLEWMGIINPYSGVTIYNHKFKGRFALSVDKSSNTAYLQISSLKAEDTAVYYCARQDSLLDYAMDYWGQGTTVTVSS VL: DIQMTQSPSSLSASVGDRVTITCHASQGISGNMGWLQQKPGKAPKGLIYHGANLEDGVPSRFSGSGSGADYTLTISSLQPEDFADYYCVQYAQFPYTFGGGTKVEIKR
2070

Now consider hAb6L4H6 (antibody, human IgG1, kappa, V domains shown) VH: EVQLVQSGSELKKPGASVKVSCKASGYTFTDYYMNWVRQAPGQGLEWMGIINPYSGVTIYNHKFKGRFVLSVDKSSNTAYLQISSLKAEDTAVYYCARQDSLLDYAMDYWGQGTTVTVSS VL: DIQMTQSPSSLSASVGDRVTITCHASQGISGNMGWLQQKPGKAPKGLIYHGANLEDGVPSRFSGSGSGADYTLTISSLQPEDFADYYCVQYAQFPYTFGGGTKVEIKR .
2000

Thanks! And Hu100 (antibody, human IgG1, kappa, V domains shown, also called hAb100L1H1) VH: EVQLVESGGGLVKPGGSLRLSCAASGFTFSDSGMHWIRQAPGKGLEWVSYISSGSSTIHYADTVKGRFTISRDNAKNSLYLQMNSLRAEDTAVYYCASPLYYYGRSYNAVAYWGQGTTVTVSS VL: DIQMTQSPSSLSASVGDRVTITCHASQNINVWLSWYQQKPGKVPKLLIYKASDLHTGVPSRFSGSGSGTDFTLTISSLQPEDVATYYCQQGQSYPLTFGGGTKVEIKR ?
2110

Try the binder BI-764532 (antibody, human IgG1, kappa, V domains shown, also called positive control molecule) VH: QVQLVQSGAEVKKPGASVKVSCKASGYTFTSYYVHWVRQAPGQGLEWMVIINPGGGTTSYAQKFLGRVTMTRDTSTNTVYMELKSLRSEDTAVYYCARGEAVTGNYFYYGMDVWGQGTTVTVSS VL: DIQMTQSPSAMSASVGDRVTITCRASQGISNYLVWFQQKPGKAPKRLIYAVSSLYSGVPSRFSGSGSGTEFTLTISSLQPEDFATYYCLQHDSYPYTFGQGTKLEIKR
1620

These entries and their values trace back to patent US20250057968A1.
